System: Membrane-associated tyrosine- and threonine-specific cdc2-inhibitory kinase (Homo sapiens) (UniProt Q99640)
Sequence (Q99640 whole entry): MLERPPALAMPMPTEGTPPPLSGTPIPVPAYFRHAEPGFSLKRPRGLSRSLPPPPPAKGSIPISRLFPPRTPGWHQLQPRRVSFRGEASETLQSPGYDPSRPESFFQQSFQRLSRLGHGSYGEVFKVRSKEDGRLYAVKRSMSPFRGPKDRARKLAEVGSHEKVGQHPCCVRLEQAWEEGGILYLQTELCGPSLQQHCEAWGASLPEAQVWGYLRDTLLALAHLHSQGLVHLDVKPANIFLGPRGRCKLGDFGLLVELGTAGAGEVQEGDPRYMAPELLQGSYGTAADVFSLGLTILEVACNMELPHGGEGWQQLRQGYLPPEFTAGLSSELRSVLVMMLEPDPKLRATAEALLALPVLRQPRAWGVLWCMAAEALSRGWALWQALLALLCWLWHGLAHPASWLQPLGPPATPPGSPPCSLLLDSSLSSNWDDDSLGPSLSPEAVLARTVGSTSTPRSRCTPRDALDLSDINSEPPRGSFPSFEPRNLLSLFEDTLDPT
Assay Remarks: Inhibition of human full length PKMYT1 expressed in HEK293 cells assessed as decrease in GST-tagged Cdk1 phosphorylation at tyrosine 15 at 5 to 20 uM after 1 hr by Western blot method relative to control
Assay type: cell-based
The source made the active and inactive calls. The calls are words filed in the database; no cut-off is given here.

- Record Smiles: "O=C(Nc1cccc(-c2nn3ncccc3c2-c2ccnc(Nc3cccnc3)n2)c1)c1c(F)cccc1F"
  inhibition: "Active"
- Record Smiles: "Cc1cc(O)cc(Nc2ccnc3cc(-c4ccccn4)ccc23)c1"
  inhibition: "Active"
- Record Smiles: "CNC(=O)c1ccccc1Nc1nc(Nc2ccc(N3CCOCC3)cc2)ncc1Cl"
  inhibition: "Active"
- Record Smiles: "Oc1cccc(Nc2ccnc3cc(-c4ccncc4)ccc23)c1"
  inhibition: "Active"

The values you see were collected from ChEMBL document CHEMBL4229416.
